- System: TK-10 renal
- Method Notes: NCI-60 one-dose screen, 48 h
- Experimental Conditions: 10 µM
The panel holds about 83,000 compounds, 20% with a hit somewhere; the sample as a whole holds those more often. Calls of active or inactive are those of the source. Rule for the calls: active = growth percent below 10; inactive = the rest.
Parameter call: string, one of Yes (active), No (inactive)

In [3]: df
Out[3]:
                                   compound  label_value
0  O=C(CNc1nc(-c2ccccc2)cs1)Nc1ccc([N+](=O)[O-])cc1          Yes

[Q] In this assay, the call recorded for `N#Cc1c(NC(=O)c2ccc(C(F)(F)F)cc2)sc2c1CCC(O)=C2` was what?
[A] No

###

Parameter growth: see the listing below.
- Test system: UO-31 renal
- Method Notes: NCI-60 one-dose screen, 48 h (100 = growth as untreated, 0 = no growth, -100 = all killed)
- Experimental Conditions: 10 µM
This is part of a sample that, as a whole, favours compounds with a hit. Of some 83,000 tested, about 20% had one in any assay.
State the answer as a number, implicitly in %.

Molecule	growth / %
O=C(Cn1nc(-c2ccccc2)ccc1=O)NN1C(=O)c2ccccc2C1=O	85.8

[Q] What measured growth goes with CN(C)c1cccc2c(S(=O)(=O)Nc3cccc(-c4csc(NC(=O)CCCCCN5CCN(c6cc7c(cc6F)C(=O)N(C6CCC(=O)NC6=O)C7=O)CC5)n4)c3)cccc12 (centres undefined) ?
[A] 70

[Q] What measured growth goes with `N#Cc1c(Cl)nc(SCc2ccc(F)cc2)nc1-c1ccc(F)cc1` ?
[A] 87.1

[Q] What measured growth goes with `Cc1ccc(/C=C/C(=O)c2ccc(NC(=O)CSc3nnc(-c4c[nH]c5ccccc45)n3-c3ccccc3)cc2)cc1` ?
[A] 55.3

[Q] What measured growth goes with `Cc1noc2c(Cc3ccccc3)nn(CC(=O)N/N=C/c3ccc(Br)cc3)c(=O)c12` ?
[A] -32.3

[Q] What measured growth goes with `O=C(Nc1cccc(C(F)(F)F)c1)c1cncc(C#Cc2cnc3ccc(N4CCOCC4)nn23)c1` ?
[A] -31.7

[Q] What measured growth goes with `Cn1c(O)c(N=Nc2nc(-c3cc4ccccc4oc3=O)cs2)c2cc(Br)ccc21` ?
[A] 77.9

[Q] What measured growth goes with `O=C(N/N=C/c1ccc(B(O)O)o1)c1[nH]c2ccc(Br)cc2c1-c1ccccc1` ?
[A] 42.2

[Q] What measured growth goes with `O=C(NCCCCC(c1ccc(F)cc1)c1ccc(F)cc1)NCCCc1cccnc1` ?
[A] 26.2

###

- System: U251 CNS
- Method Notes: NCI-60 one-dose screen, 48 h
- Experimental Conditions: 10 µM
Compounds without any hit were thinned out: in the full panel of roughly 83,000, 20% have a hit. Calls of active or inactive are those of the source. The calls were made as follows: active = growth percent below 10; inactive = the rest.
Parameter call: string, one of yes (1) = active, no (0) = inactive

>>> df
                                   molecule  label_value
0  CC(C)C1=C[C@@]23CC[C@@H]4[C@](C)(CCC[C@]4(C)C(=O)NCc4ccccc4)[C@H]2C[C@@H]1[C@H]1C(=O)OC(=O)[C@H]13       no (0)

Let's switch to this molecule now.
[Q] In this assay, the call recorded for O=C(c1ccc(Cl)cc1)C1[C@H](c2ccc(Br)cc2)[C@@H](c2ccccc2)NC12C(=O)Nc1ccccc12 (stereo partly drawn) was what?
[A] yes (1)

Data credit: PubChem BioAssay (NCI)
